Data origin, for the record: patent US20190322748A1

- target-system: T1, full-length human Tim3 on cells (CHO-K1 stably transfected with plasmid 15312_hTIM3-fl_pUC_Neo) (human, UniProt Q8TDQ0 22-301)
- T1 construct: Also used as the target of the MLR read-outs (native TIM-3); also called CHO-Tim3; CHO-TIM3
- experiment-description: cellular ELISA on CHO-TIM3 (values in relation to the samples max value)
value-kind: EC50
The answer consists of two parts: a number and, after it, its unit.

(Q) Any idea what its EC50 is? The binder is Tim3_0016 variant (0018) (antibody, V domains shown, Mouse monoclonal antibody; also called Tim3_0018; Tim3 0018) VH: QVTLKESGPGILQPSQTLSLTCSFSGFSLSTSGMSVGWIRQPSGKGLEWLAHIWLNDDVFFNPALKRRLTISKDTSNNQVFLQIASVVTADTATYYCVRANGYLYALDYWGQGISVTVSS VL: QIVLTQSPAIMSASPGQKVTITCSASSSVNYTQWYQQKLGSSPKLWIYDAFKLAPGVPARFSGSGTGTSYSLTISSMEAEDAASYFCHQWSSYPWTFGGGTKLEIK
(A) 0.0264 µg/mL
